Catalogue of compounds with associated pEC50
Experiment: Inhibition of ABCG2 (unknown origin) expressed in MDCK2 cells co-expressing BCRP (unknown origin) assessed as potentiation of SN-38-induced cytotoxicity measured after 72 hrs by MTT assay
pEC50: −log10 of the molar value.
measurement name: pEC50

molecular string	measurement name	quantitative readout
COc1ccc(-c2c(OCC(=O)Nc3cccc4ccccc34)oc3ccccc3c2=O)cc1	pEC50	6.10
COc1cccc(/C=C/C(=O)c2ccc(OCC(=O)Nc3ccc(OC)c(OC)c3)cc2)c1	pEC50	5.86
O=C(COc1c(-c2ccccc2Cl)oc2ccccc2c1=O)Nc1ccc2c(c1)COC2=O	pEC50	5.91
COc1ccc(NC(=O)COc2ccc(C(=O)/C=C/c3c(F)cccc3F)cc2)cc1OC	pEC50	6.35
CCCOc1ccc(/C=C/C(=O)c2ccc(O)cc2)cc1	pEC50	5.90
O=C(COc1cccc(C(=O)/C=C/c2ccccc2)c1)Nc1ccc2c(c1)COC2=O	pEC50	5.93
COc1ccc(-c2c(OCC(=O)Nc3cccc4ccccc34)oc3ccccc3c2=O)cc1OC	pEC50	6.35
COc1cc(/C=C/C(=O)c2ccc(OCC(=O)NCc3ccc4c(c3)OCO4)cc2)cc(OC)c1OC	pEC50	6.00
COc1ccc(NC(=O)COc2ccc(C(=O)/C=C/c3cc(OC)c(OC)c(OC)c3)cc2)cc1OC	pEC50	6.97
COc1cc(C(=O)/C=C/c2cc(OC)c(OC)c(OC)c2)ccc1O	pEC50	6.29

====

Catalogue of molecules with associated pEC50
Assay: Inhibition of ABCB1 in human A2780/ADR cells assessed as potentiation of daunorubicin-induced cytotoxicity measured after 72 hrs by MTT assay
pEC50: −log10 of the molar value.

molecular string	pEC50
COc1ccc(-c2c(OCC(=O)Nc3cccc4ccccc34)oc3ccccc3c2=O)cc1OC	5.51
O=C(COc1c(-c2ccccc2Cl)oc2ccccc2c1=O)Nc1ccc2c(c1)COC2=O	5.00
C[C@]1(O)C[C@@H](c2nc(-c3ccc4ccc(-c5ccccc5)nc4c3)c3c(N)nccn32)C1	5.68
COc1cc2ncnc(Nc3ccc(O)c(Br)c3)c2cc1OC	5.51
Cc1ccc(-c2c(OCC(=O)Nc3cccc4ccccc34)oc3ccccc3c2=O)cc1	5.30

====

Catalogue of compounds with associated EC50
Biological target: ATP-dependent translocase ABCB1 (Homo sapiens, UniProt P08183)
Sequence (P08183 whole entry): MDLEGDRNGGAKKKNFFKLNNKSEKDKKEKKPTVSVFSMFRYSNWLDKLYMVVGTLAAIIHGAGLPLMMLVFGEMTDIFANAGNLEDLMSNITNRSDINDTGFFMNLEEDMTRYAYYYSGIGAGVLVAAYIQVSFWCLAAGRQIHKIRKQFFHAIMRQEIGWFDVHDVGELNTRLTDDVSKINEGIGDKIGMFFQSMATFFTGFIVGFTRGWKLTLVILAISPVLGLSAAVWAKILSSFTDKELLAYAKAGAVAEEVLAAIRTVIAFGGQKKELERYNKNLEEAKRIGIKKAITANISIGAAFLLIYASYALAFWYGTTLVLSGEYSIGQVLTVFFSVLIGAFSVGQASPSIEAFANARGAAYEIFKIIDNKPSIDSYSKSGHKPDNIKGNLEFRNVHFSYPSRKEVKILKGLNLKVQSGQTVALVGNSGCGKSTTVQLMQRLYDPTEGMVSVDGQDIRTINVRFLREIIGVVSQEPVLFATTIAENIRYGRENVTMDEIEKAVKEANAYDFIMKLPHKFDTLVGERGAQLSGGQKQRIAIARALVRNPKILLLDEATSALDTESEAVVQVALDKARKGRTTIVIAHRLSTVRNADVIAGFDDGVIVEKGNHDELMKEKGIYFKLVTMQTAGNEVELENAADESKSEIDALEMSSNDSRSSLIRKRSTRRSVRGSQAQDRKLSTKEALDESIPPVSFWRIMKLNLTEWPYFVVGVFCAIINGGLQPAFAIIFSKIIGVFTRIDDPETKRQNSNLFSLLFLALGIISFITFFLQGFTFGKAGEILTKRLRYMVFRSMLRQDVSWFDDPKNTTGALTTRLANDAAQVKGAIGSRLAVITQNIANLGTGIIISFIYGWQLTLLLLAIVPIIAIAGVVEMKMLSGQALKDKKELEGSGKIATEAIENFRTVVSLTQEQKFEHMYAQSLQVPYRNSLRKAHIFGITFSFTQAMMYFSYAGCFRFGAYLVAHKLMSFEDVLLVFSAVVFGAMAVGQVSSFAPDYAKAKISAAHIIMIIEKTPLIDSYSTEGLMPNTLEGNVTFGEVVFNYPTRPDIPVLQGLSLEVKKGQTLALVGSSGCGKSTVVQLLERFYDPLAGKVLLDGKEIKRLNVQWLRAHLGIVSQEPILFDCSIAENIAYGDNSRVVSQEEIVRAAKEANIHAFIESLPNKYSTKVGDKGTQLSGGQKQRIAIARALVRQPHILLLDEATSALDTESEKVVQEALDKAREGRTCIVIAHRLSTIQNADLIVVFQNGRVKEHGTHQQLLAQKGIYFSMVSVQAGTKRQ
Assay: Inhibition of ABCB1 in human A2780/ADR cells assessed as potentiation of daunorubicin-induced cytotoxicity measured after 72 hrs by MTT assay

molecular string	EC50, µM
COC(=O)c1ccc2c(c1)NC(=O)/C2=C(\Nc1ccc(N(C)C(=O)CN2CCN(C)CC2)cc1)c1ccccc1	0.276
Cc1ccc(-n2nc(C(C)(C)C)cc2NC(=O)Nc2ccc(OCCN3CCOCC3)c3ccccc23)cc1	0.524
CN1CCN(c2cccc(Nc3nc4c(-c5ccc(S(C)(=O)=O)cc5)cccn4n3)c2)CC1	0.202
CC(=O)Nc1cccc(-n2c(=O)n(C3CC3)c(=O)c3c(Nc4ccc(I)cc4F)n(C)c(=O)c(C)c32)c1	0.247
Cc1cc(Nc2ncc(Cl)c(Nc3ccccc3S(=O)(=O)C(C)C)n2)c(OC(C)C)cc1C1CCNCC1	0.089
